The molecules listed here are annotated with their log10 of solubility.
Test: Solubility
Assay type: physicochemical
Details: Biological Data table; read-out: Solubility
Short version: log10 scale, solubility, µg/mL.

Please report the recorded log10 of solubility for CC(C)(C)c1ccc(S(=O)(=O)Nc2ccc3[nH]c(C(=O)NCCN4CCOCC4)c(-c4ccccc4)c3c2)cc1 [Example 19] . 0.60

====

Target: soluble, sperm-specific adenylate cyclase (sAC) (Homo sapiens)
Sequence (Q96PN6 whole entry): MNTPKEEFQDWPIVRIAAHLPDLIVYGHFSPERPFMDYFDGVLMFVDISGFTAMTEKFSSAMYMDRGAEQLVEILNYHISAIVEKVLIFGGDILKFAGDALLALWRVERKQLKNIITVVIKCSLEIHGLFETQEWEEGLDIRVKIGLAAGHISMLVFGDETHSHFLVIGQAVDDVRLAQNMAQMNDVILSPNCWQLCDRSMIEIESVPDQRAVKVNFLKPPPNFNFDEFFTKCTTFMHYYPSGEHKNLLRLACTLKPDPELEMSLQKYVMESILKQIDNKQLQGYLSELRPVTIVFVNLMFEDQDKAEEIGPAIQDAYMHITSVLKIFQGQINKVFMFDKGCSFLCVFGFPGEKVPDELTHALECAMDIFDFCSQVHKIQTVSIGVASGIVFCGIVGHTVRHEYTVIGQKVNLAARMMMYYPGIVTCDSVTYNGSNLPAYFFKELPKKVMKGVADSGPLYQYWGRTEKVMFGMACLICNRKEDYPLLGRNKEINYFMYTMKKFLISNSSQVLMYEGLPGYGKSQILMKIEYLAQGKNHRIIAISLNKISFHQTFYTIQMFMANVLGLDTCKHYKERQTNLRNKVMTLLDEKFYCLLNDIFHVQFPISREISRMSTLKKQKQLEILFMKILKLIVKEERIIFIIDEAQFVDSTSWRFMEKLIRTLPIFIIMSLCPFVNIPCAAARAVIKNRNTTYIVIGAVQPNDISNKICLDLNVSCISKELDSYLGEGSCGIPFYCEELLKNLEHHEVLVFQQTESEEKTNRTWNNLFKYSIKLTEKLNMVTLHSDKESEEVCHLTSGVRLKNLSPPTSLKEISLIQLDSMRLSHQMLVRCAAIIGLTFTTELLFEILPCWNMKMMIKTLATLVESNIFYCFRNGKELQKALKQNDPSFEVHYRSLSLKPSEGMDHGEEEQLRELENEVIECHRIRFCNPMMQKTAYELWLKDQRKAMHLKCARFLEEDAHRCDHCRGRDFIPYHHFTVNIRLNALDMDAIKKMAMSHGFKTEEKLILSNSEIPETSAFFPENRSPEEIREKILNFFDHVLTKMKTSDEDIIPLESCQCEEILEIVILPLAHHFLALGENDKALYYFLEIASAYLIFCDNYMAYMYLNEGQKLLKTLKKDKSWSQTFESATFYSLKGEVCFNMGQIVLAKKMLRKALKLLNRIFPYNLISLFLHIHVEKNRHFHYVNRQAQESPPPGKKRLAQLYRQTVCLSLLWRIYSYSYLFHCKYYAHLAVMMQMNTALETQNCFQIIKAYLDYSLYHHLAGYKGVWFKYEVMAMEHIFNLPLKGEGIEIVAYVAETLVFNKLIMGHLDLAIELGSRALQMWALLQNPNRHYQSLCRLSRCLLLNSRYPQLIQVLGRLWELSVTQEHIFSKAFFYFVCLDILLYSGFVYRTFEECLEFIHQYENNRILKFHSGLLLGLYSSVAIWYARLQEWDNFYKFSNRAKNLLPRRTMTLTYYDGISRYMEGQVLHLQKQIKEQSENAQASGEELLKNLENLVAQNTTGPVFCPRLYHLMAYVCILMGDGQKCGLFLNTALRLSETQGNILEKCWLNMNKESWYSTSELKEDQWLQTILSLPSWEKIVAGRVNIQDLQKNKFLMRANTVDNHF
Test: sAC-Assay (enzyme test, HTRF cAMP detection)
Assay type: biochemical
Conditions: Biological Data table
Lab note: anything with IC50 below 2000 nM is marked MET; values at 2000 nM or higher are marked NOT MET.

CC(C)(C)c1ccc(S(=O)(=O)Nc2ccc3[nH]c(C(=O)NCCO)c(-c4ccccc4)c3c2)cc1 [Example 37]	MET

Confirm or reject: IC50 of COc1ccc(-c2c(C(=O)NCCN(C)C)[nH]c3ccc(NS(=O)(=O)c4ccc(C(C)(C)C)cc4)cc23)cc1 [Example 31] lies strictly below 2000 nM MET

Another compound to look at: CCCNC(=O)c1[nH]c2ccc(NS(=O)(=O)c3ccc(C(C)(C)C)cc3)cc2c1-c1ccccc1 [Example 9] NOT MET

Another compound to look at: CN(C)CCNC(=O)c1[nH]c2ccc(NS(=O)(=O)c3ccc(C(C)(C)C)cc3)cc2c1-c1cccnc1 [Example 32] MET

Another compound to look at: CN(C)CCNC(=O)c1[nH]c2ccc(NS(=O)(=O)c3ccc(C(C)(C)C)cc3)cc2c1-c1cccc(Cl)c1 [Example 25] MET

Another compound to look at: CN1CCN(NC(=O)c2[nH]c3ccc(NS(=O)(=O)c4ccc(C(C)(C)C)cc4)cc3c2-c2ccccc2)CC1 [Example 20] NOT MET

====

The compounds listed here are annotated with their solubility.
Test: Solubility
Type: physicochemical
Conditions: Biological Data table; read-out: Solubility
Give just the number in µg/mL; leave the unit off.

Below, 3 compounds whose answers are already recorded.
CN(C)CCNC(=O)c1[nH]c2ccc(NS(=O)(=O)c3ccc(C(C)(C)C)cc3)cc2c1-c1cccc(Cl)c1 [Example 25]	5
Cc1ccc(-c2c(C(=O)NCCN(C)C)[nH]c3ccc(NS(=O)(=O)c4ccc(C(C)(C)C)cc4)cc23)cc1 [Example 29]	7
CC(C)(C)c1ccc(S(=O)(=O)Nc2ccc3[nH]c(C(=O)NC4CCOCC4)c(-c4ccccc4)c3c2)cc1 [Example 40]	5

Please report the recorded solubility for CC(C)(C)c1ccc(S(=O)(=O)Nc2ccc3[nH]c(C(=O)Nc4ccncc4)c(-c4ccccc4)c3c2)cc1 [Example 21] . 0.1

====

Molecular target: UniProtKB Q96PN6
Assay: sAC-Assay (enzyme test, HTRF cAMP detection)
Format: biochemical
Settings: comparison with known compounds in the enzyme test
OBSERVED PROPERTY: IC50 (µM)
Give just the number in µM; leave the unit off.

CN(C)CCNC(=O)c1[nH]c2ccc(NS(=O)(=O)c3ccc(C(C)(C)C)cc3)cc2c1-c1cccc(Cl)c1 [Example 25]	0.63
C[C@]12CC[C@@H]3c4cc(O)c(O)cc4CC[C@H]3[C@@H]1CC[C@@H]2O [2-OH-Estradiol, reference compound]	11
CC(C)(C)c1ccc(S(=O)(=O)Nc2ccc3[nH]c(C(=O)NC4CCOCC4)c(-c4ccccc4)c3c2)cc1 [Example 40]	0.086

Now take the following compound into account.
Please report the recorded IC50 for C[C@]12CC[C@@H]3c4ccc(O)c(O)c4CC[C@H]3[C@@H]1CC[C@@H]2O [4-OH-Estradiol, reference compound] . 13
